The measurements presented in this section are drawn from paper PMC7673538.

system: CV-B3; assay: microbe, parasite or virus in culture; format: cell-based, coxsackievirus B3; conditions: Enterovirus B, CVB3, HeLa R19, read-out: Exp 2 EC50 HelaR19
pEC50: −log10 of the molar value.

[
  {
    "compound": "COc1ccc(N(Cc2ccc(F)cc2)C(=O)c2ccccn2)cc1",
    "measured-on": "CV-B3",
    "pEC50": 5.03
  },
  {
    "compound": "COc1ccc(N(Cc2ccc(C(F)(F)F)cc2)C(=O)c2ccco2)cc1 [Compound 19e]",
    "measured-on": "CV-B3",
    "pEC50": 6.00
  },
  {
    "compound": "COc1ccc(N(Cc2ccc(F)cc2)C(=O)c2ccco2)cc1",
    "measured-on": "CV-B3",
    "pEC50": 5.73
  },
  {
    "compound": "O=C(c1ccco1)N(Cc1ccc(S(F)(F)(F)(F)F)cc1)c1ccccc1 [Compound 19f]",
    "measured-on": "CV-B3",
    "pEC50": 5.51
  },
  {
    "compound": "CC(C)c1ccc(CN(C(=O)c2ccco2)c2ccccc2)cc1 [Compound 19h]",
    "measured-on": "CV-B3",
    "pEC50": 5.11
  },
  {
    "compound": "COc1ccc(N(Cc2ccccc2)C(=O)c2ccco2)cc1 [Compound 19c]",
    "measured-on": "CV-B3",
    "pEC50": 5.32
  },
  {
    "compound": "COc1ccc(N(Cc2ccc(F)cc2)C(=O)c2cc[nH]c2)cc1 [Compound 12a]",
    "measured-on": "CV-B3",
    "pEC50": 7.74
  },
  {
    "compound": "Cc1ccc(CN(C(=O)c2ccco2)c2ccccc2)cc1 [Compound 19g]",
    "measured-on": "CV-B3",
    "pEC50": 5.77
  },
  {
    "compound": "O=C(c1ccc[nH]1)N(Cc1ccc(C(F)(F)F)cc1)c1ccccc1",
    "measured-on": "CV-B3",
    "pEC50": 5.60
  },
  {
    "compound": "O=C(c1ccco1)N(Cc1ccccc1)c1ccccc1 [Compound 19a, N-Benzyl-N-phenylfuran-2-carboxamide]",
    "measured-on": "CV-B3",
    "pEC50": 5.70
  },
  {
    "compound": "COc1ccc(N(Cc2ccc(F)cc2)C(=O)c2cccs2)cc1",
    "measured-on": "CV-B3",
    "pEC50": 6.51
  },
  {
    "compound": "COc1ccc(N(Cc2ccc(F)cc2)C(=O)c2ccc[nH]2)cc1",
    "measured-on": "CV-B3",
    "pEC50": 5.33
  },
  {
    "compound": "O=C(c1ccco1)N(Cc1ccccc1)c1ccc(C(F)(F)F)cc1 [Compound 19i]",
    "measured-on": "CV-B3",
    "pEC50": 5.52
  },
  {
    "compound": "O=C(c1ccco1)N(Cc1ccc(C(F)(F)F)cc1)c1ccccc1 [Compound 19d]",
    "measured-on": "CV-B3",
    "pEC50": 6.20
  },
  {
    "compound": "O=C(c1ccco1)N(Cc1ccc(F)cc1)c1ccccc1 [Compound 19b]",
    "measured-on": "CV-B3",
    "pEC50": 6.05
  }
]
